# key: entry, value: ED50
species on record: Rattus norvegicus; experiment: Tested for inhibition of cholesterol biosynthesis in rat; assay type: functional

molecule	ED50 (mg/kg)
C=CCc1cc(CCC(=O)O)ccc1C#C[C@@]1(O)CN2CCC1CC2.Cl (single isomer, unassigned)	0.9
C=CCc1cc(CCC(=O)O)ccc1C#CC1(O)CN2CCC1CC2.Cl (centres undefined)	1.8
C=CCc1cc(CCC(=O)OCCCCCC)ccc1C#CC1(O)CN2CCC1CC2 (centres undefined)	1.5
C=CCc1cc(CCC(=O)OCc2ccccc2)ccc1C#CC1(O)CN2CCC1CC2 (centres undefined)	1.6

###

assay: Plasma half life of hydrolysis of the compound; format: ADME, organism-based; details: rat

molecule	half-life
C=CCc1cc(CCC(=O)OCc2ccccc2)ccc1C#CC1(O)CN2CCC1CC2 (stereo not drawn)	≤ 5 min
C=CCc1cc(CCC(=O)OCC)ccc1C#CC1(O)CN2CCC1CC2 (stereo not drawn)	≤ 5 min
C=CCc1cc(CCC(=O)OCCCCCC)ccc1C#CC1(O)CN2CCC1CC2 (stereo not drawn)	≤ 5 min

Origin of the recorded values: ChEMBL document CHEMBL1129856
